System: 22Rv1 tumor-bearing mice
TEST_METHOD_NOTES: Biodistribution in 22Rv1 tumor-bearing mice
CONDITION_DETAILS: 10 min p.i., 0.74 MBq, n = 3
READOUT_TYPE: Uptake Tumor (22Rv1), Mean (ID%/g)
All answers are understood in ID%/g, so give the number only.

Examples with answers:
Lab note: molecule O=C([O-])CN1CCN(CC(=O)[O-])CCN(CC(=O)NCCCCCC(=O)NC(Cc2cnc3ccccc3c2)C(=O)NCCCCC(NC(=O)NC(CCC(=O)O)C(=O)O)C(=O)O)CCN(CC(=O)O)CC1.[68Ga+3] (stereo not shown) [[^68Ga]Ga-PSMA-Q-2] tested on 22Rv1 tumor-bearing mice; recorded Uptake Tumor (22Rv1), Mean was 1.34

Simply: O=C([O-])CN1CCN(CC(=O)[O-])CCN(CC(=O)NCCCCC(=O)NC(Cc2cnc3ccccc3c2)C(=O)NCCCCC(NC(=O)NC(CCC(=O)O)C(=O)O)C(=O)O)CCN(CC(=O)O)CC1.[68Ga+3] (stereo not shown) [[^68Ga]Ga-PSMA-Q-1] , 22Rv1 tumor-bearing mice, Uptake Tumor (22Rv1), Mean = 1.67

Measured Uptake Tumor (22Rv1), Mean for this entry O=C([O-])CN1CCN(CC(=O)[O-])CCN(CC(=O)NCC2CCC(C(=O)NC(Cc3cnc4ccccc4c3)C(=O)NCCCCC(NC(=O)NC(CCC(=O)O)C(=O)O)C(=O)O)CC2)CCN(CC(=O)O)CC1.[68Ga+3] (stereo not shown) [[^68Ga]Ga-PSMA-Q] on 22Rv1 tumor-bearing mice: 1.86

Record O=C([O-])CN1CCN(CC(=O)[O-])CCN(CC(=O)NCc2ccc(C(=O)NC(Cc3cnc4ccccc4c3)C(=O)NCCCCC(NC(=O)NC(CCC(=O)O)C(=O)O)C(=O)O)cc2)CCN(CC(=O)O)CC1.[68Ga+3] (stereo not shown) [[^68Ga]Ga-PSMA-Q-3] ; system 22Rv1 tumor-bearing mice; Uptake Tumor (22Rv1), Mean = 1.88

Next:
Note to self: Uptake Tumor (22Rv1), Mean of O=C([O-])CN1CCN(CC(=O)[O-])CCN(CC(=O)NCC2CCC(C(=O)NC(Cc3ccc4ccccc4c3)C(=O)NCCCCC(NC(=O)NC(CCC(=O)O)C(=O)O)C(=O)O)CC2)CCN(CC(=O)O)CC1.[68Ga+3] (stereo not shown) [[^68Ga]Ga-PSMA-617, reference compound] with 22Rv1 tumor-bearing mice was 2.10

Entry O=C([O-])CN(CCN(CC(=O)[O-])Cc1cc(CCC(=O)NCCCCCC(=O)NCCCC[C@H](NC(=O)N[C@@H](CCC(=O)O)C(=O)O)C(=O)O)ccc1[O-])Cc1cc(CCC(=O)O)ccc1[O-].[68Ga+3].[OH3+] [[^68Ga]Ga-PSMA-11, reference compound] under 22Rv1 tumor-bearing mice had Uptake Tumor (22Rv1), Mean of 1.61

Bench note, 22Rv1 tumor-bearing mice: entry O=C([O-])CN1CCN(CC(=O)[O-])CCN(CC(=O)NCC2CCC(C(=O)NC(Cc3ccncc3)C(=O)NCCCCC(NC(=O)NC(CCC(=O)O)C(=O)O)C(=O)O)CC2)CCN(CC(=O)O)CC1.[68Ga+3] (stereo not shown) [[^68Ga]Ga-PSMA-4PY] , its Uptake Tumor (22Rv1), Mean = 1.56

These data points were gathered from paper PMC9414910.
